The measured values listed here are drawn from patent US12636299B2.

Test system: glial A-172 cells
method description: Cytotoxicity, Calcein AM viability assay on glial A-172 cells
Assay type: cell-based, human
measurement setup: 1 μM, 48 hours
Recorded viability, percentage of DMSO control by entry
readout kind: viability, percentage of DMSO control (%)

compound	value reported
C=C(C(=O)OCc1ccco1)C1CCC2(COC(C)=O)CCC3(C)C(CCC4C5(C)CCC(OC(C)=O)C(C)(C)C5CCC43C)C12 (stereo not shown)	100.0
C=C(C(=O)OCc1cccnc1)C1CCC2(COC(C)=O)CCC3(C)C(CCC4C5(C)CCC(OC(C)=O)C(C)(C)C5CCC43C)C12 (stereo not shown)	97.9
C=C(C(=O)OCc1ccncc1)C1CCC2(COC(C)=O)CCC3(C)C(CCC4C5(C)CCC(OC(C)=O)C(C)(C)C5CCC43C)C12 (stereo not shown)	98.2
C=C(C(=O)OCc1cccs1)C1CCC2(COC(C)=O)CCC3(C)C(CCC4C5(C)CCC(OC(C)=O)C(C)(C)C5CCC43C)C12 (stereo not shown)	98.4

###

Recorded viability, percentage of DMSO control by entry
Test system: SH-SY5Y human neuroblastoma cell line
method description: Cytotoxicity, Calcein AM viability assay on neuron-like SH-SY5Y cells
Format: cell-based
measurement setup: 10 μM, 24 h

compound	target desc	viability, percentage of DMSO control [%]
C=C(C(=O)OCc1cccnc1)C1CCC2(COC(C)=O)CCC3(C)C(CCC4C5(C)CCC(OC(C)=O)C(C)(C)C5CCC43C)C12 (stereo not shown)	SH-SY5Y human neuroblastoma cell line	142.5
C=C(C(=O)OCc1cccs1)C1CCC2(COC(C)=O)CCC3(C)C(CCC4C5(C)CCC(OC(C)=O)C(C)(C)C5CCC43C)C12 (stereo not shown)	SH-SY5Y human neuroblastoma cell line	113.5
C=C(C(=O)OCc1ccncc1)C1CCC2(COC(C)=O)CCC3(C)C(CCC4C5(C)CCC(OC(C)=O)C(C)(C)C5CCC43C)C12 (stereo not shown)	SH-SY5Y human neuroblastoma cell line	137.4
C=C(C(=O)OCc1ccco1)C1CCC2(COC(C)=O)CCC3(C)C(CCC4C5(C)CCC(OC(C)=O)C(C)(C)C5CCC43C)C12 (stereo not shown)	SH-SY5Y human neuroblastoma cell line	129.5

###

Tested on: human neuron-like SH-SY5Y cells
method description: 3NPA-induced model of Huntington's disease, neuron-like SH-SY5Y cells
Assay type: cell-based
measurement setup: 10 μM, difference to 20 mM 3NPA, 48 h
Recorded Neuro-protective effect (% of control) by entry

compound	Neuro-protective effect (% of control)
C=C(C(=O)OCc1ccco1)C1CCC2(COC(C)=O)CCC3(C)C(CCC4C5(C)CCC(OC(C)=O)C(C)(C)C5CCC43C)C12 (stereo not shown)	20.63 % of control
C=C(C(=O)OCc1cccnc1)C1CCC2(COC(C)=O)CCC3(C)C(CCC4C5(C)CCC(OC(C)=O)C(C)(C)C5CCC43C)C12 (stereo not shown)	28.98 % of control
C=C(C(=O)OCc1ccncc1)C1CCC2(COC(C)=O)CCC3(C)C(CCC4C5(C)CCC(OC(C)=O)C(C)(C)C5CCC43C)C12 (stereo not shown)	24.13 % of control
C=C(C(=O)OCc1cccs1)C1CCC2(COC(C)=O)CCC3(C)C(CCC4C5(C)CCC(OC(C)=O)C(C)(C)C5CCC43C)C12 (stereo not shown)	20.53 % of control
